Cited source for all entries: ChEMBL document CHEMBL3988442

# System: Wolbachia pipientis
# test.details: Anti-Wolbachia Cell-Based Screen
# Assay type: functional
# Parameters: scale not given: in the data most compounds retested in dose-response had high values
# experimental.conditions: 5 µM
Out of some 48,000 compounds screened, about 13,000 (27%) showed an effect of 50% or more. Some of the results follow.
Listing of recorded Percent Effect by entry.
observed.property: Percent Effect (%)

CCc1nnnn1Cc1csc(N(C)C(C)=O)n1: 97.38
CC(C)Cn1cc(NC(=O)c2cccc(N(C)C)c2)cn1: -6.196
CCN(CC)C(=O)Cn1cc(C(=O)NCCCc2scnc2C)nn1: 7.072
COc1ccc(CNC[C@H]2COCc3nc4cccnc4n32)cc1: -4.105
CNC(=O)c1cc(NC(=O)Nc2cnn(CC(C)C)c2)ccc1F: 106.8
Cc1nc(C)n(CC2CCCCN2c2ncnc3ccsc23)n1 (stereo not given): 109.8
CN(C)C(=O)C1CCCN1c1ncnc2ccsc12 (stereo not given): 11.36
CC(=O)N(C)c1nc(Cn2nnnc2C2CCCC2)cs1: 98.73
CNC(=O)CNC(=O)Nc1ccc(F)c(Br)c1: 3.521
CC(=O)N(C)c1nc(Cn2nnnc2C(C)(C)C)cs1: 75.49
CNC(=O)c1cc(NC(=O)NC(C)CCc2cccn2C)ccc1F (stereo not given): 0.1416
CNC(=O)c1ccc(=O)n(Cc2csc(N(C)C(C)=O)n2)c1: 1.068
C[C@@H](NC(=O)c1cnccn1)c1c(-c2ccc(F)cc2)noc1C(=O)O: 0.3029
c1nc(N2CCCCC2Cn2cncn2)c2sccc2n1 (stereo not given): 0.3831
O=C(Nc1cnn(CCN2CCOCC2)c1)c1cc(F)ccc1F: -10.74

###

# Test system: Wolbachia pipientis
# test.details: Anti-Wolbachia Cell-Based Screen
# Assay type: functional
# Parameters: scale not given: in the data most compounds retested in dose-response had high values
# experimental.conditions: 5 µM
The whole screen tested about 48,000 compounds, of which about 13,000 (27%) showed an effect of 50% or more. Some of the results follow.
observed.property: Percent Effect (%)

Cn1cnc2c1C(C(=O)N1CCOCC1)N(C(=O)c1ccccc1)CC2 (centres undefined): 1.78
CC(=O)Nc1cccc(C(C)NCC2CCS(=O)(=O)CC2)c1 (centres undefined): 10.2
CC(=O)N1CCN(c2ccccc2CNc2ccc(C)cn2)CC1: 1.224
CC(C1CCN(Cc2c(Cl)ccc(O)c2Cl)CC1)N1CCN(C)CC1 (centres undefined): 2.442
COc1ncccc1-c1nc(-c2ccccn2)nn1C1CCS(=O)(=O)C1 (centres undefined): 10.63
Cc1ccc(Cl)c(CN2CCN(C)C(C(=O)O)C2)c1F (centres undefined): 102.6
CC(=O)N1CCC(NS(=O)(=O)c2cccnc2)CC1: 4.265
c1cc(-c2ccc(CN3CCC4(CCNCC4)CC3)s2)[nH]n1: 13.89
CCC(=O)N1CCCC1c1csc(Nc2cnccn2)n1 (centres undefined): 122
COc1c(CNC2CCCc3ccccc32)c(C)nn1C (centres undefined): -3.62
O=C(Nc1cc(Cl)ccc1Cl)NC1CCN(C2CCOC2)CC1 (centres undefined): -16.63
CC(C)(N)c1cn(C2CCN(C(=O)CCC3CCCCC3)CC2)nn1: -21.08
O=C(C1CC1)N1CCC(O)(CN2CCN(c3ccccc3)CC2)C1 (centres undefined): 101.1
CC(=O)N1CCC(c2ccnc(Nc3ccc(C)cn3)n2)C1 (centres undefined): 111.1
COCCC1(CNC(=O)NCC2CN(C)CCN2C)CCC1 (centres undefined): -22.96
CC(=O)N1CCN(Cc2ccc(Cl)c(F)c2)CC(O)C1 (centres undefined): 3.004
Cc1nn(C)c(C)c1CN(C)C1CCN(c2ncnc3[nH]cnc23)CC1: 0.8279
Cc1ccc(Nc2nccc(C3CCN(C(=O)CO)C3)n2)nc1 (centres undefined): 147.3
CCN(CC)CCC(=O)NCc1cc2n(n1)CCN(C(=O)N(C)C)C2: -4.405
CC1=N[C@@]2(CC[C@@H]3CN(S(=O)(=O)CC(C)C)C[C@@H]32)C(=O)N1CC1CC1: 5.74
CCC[C@@H]1CN(Cc2nnc(-c3cccc(F)c3)o2)C[C@H]1NC(C)=O: -4.818
Cc1ccc(-c2ccc(C(=O)NCCS(N)(=O)=O)c(F)c2)cc1: 17.06
NC(=O)c1nc(COc2ccc3c(c2)OCO3)no1: 26.77
Cc1noc(C)c1CN(C)C(=O)C1(NS(C)(=O)=O)CCCCC1: -10.96
COCC(=O)N1CC2(CCN(c3ccccc3)C2)C1: 10.91
CN1C(=O)C(C)(C)COc2cc(NS(=O)(=O)c3ccccc3)ccc21: 19.53
O=C(CCn1cccn1)N1C[C@@H]2CC[C@H](C1)N(Cc1ccccn1)C2=O: 2.815
COCC(=O)N1CCC(O)(CN2CCN(c3ccccc3)CC2)C1 (centres undefined): 93.8
O=C(Cn1nc2ccccc2n1)N1CCCC(O)(CN2CCCC2)C1 (centres undefined): -26.39
COC(=O)CNc1cc(C(=O)NCC(F)(F)F)cc(F)c1C: 5.099
NCC(=O)N1CCCC(O)(CN2CCN(c3ccccc3)CC2)CC1 (centres undefined): 149.6
CCOCC(=O)Nc1ncn(Cc2cccc(Br)c2)n1: 5.844
COCC(=O)N1CCCC2(CCN(c3ccccc3)C2=O)C1 (centres undefined): -10.31
CSc1nc2ncc3c(=O)n(C)ccc3n2n1: 108.2
CC(=O)N1CCCC1c1csc(Nc2cnccn2)n1 (centres undefined): -5.394
Cc1nc2nc(C)c3c(=O)n(-c4ccn[nH]4)ccc3n2n1: 1.096
CNS(=O)(=O)c1cccc(C(C)NCc2nccn2C(C)C)c1 (centres undefined): -13.68
CC(=O)N1CC[C@H](c2nc3cc(C)ccc3o2)C1: -3.722
Cc1nn(C)c(N(C)C)c1CNC1CCOc2c(F)cccc21 (centres undefined): -12.9
